# target-of-assay: Hepatitis C virus serine protease, NS3/NS4A (Hepatitis C virus, UniProt A3EZI9+D2K2A8)
# Sequence (D2K2A8 whole entry): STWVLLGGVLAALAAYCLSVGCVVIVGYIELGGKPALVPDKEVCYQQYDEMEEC
# Sequence (A3EZI9 whole entry): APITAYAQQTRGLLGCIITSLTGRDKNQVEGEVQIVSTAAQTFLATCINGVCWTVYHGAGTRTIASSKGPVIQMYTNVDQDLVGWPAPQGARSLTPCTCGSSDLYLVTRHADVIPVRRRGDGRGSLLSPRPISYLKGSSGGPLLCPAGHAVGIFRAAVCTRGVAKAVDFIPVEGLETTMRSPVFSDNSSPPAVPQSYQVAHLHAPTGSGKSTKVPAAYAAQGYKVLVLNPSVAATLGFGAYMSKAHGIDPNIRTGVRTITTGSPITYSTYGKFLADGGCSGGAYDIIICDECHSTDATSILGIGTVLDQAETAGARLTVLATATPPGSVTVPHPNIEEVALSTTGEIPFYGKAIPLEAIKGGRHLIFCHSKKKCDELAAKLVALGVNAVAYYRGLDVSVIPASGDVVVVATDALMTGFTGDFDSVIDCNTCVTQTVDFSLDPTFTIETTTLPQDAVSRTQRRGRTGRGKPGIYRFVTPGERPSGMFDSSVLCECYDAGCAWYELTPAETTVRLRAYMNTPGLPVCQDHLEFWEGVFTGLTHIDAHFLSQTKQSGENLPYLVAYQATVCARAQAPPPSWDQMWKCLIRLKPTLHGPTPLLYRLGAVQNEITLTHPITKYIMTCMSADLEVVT
# method-summary: Inhibitory concentration evaluated against NS3/4A protease.
pIC50: −log10 of the molar value.
Give measured pIC50 for each item. Keep answers brief.

Ask: Provide measured pIC50 value, entry: `CC(C)C[C@H](NC(=O)Cn1nc(-c2ccccc2)c2ccccc2c1=O)C(=O)N[C@@H](CC(F)F)C(=O)C(=O)O`
Result: < 3.70

Ask: Provide measured pIC50 value, entry: `CC(C)C[C@H](NC(=O)[C@@H](O)c1ccccc1)C(=O)N[C@@H](CC(F)F)C(=O)C(=O)O`
Result: < 4.00

Ask: Provide measured pIC50 value, entry: `CC(C)C[C@H](NC(=O)c1cccc(Oc2ccccc2)c1)C(=O)N[C@@H](CC(F)F)C(=O)C(=O)O`
Result: < 3.70

Ask: Provide measured pIC50 value, entry: `CC(C)C[C@H](NC(=O)Cn1c(-c2ccccc2)nc2ccccc21)C(=O)N[C@@H](CC(F)F)C(=O)C(=O)O`
Result: < 3.70

Ask: Provide measured pIC50 value, entry: `CC(C)C[C@H](NC(=O)[C@H](O)C1CCCCC1)C(=O)N[C@@H](CC(F)F)C(=O)C(=O)O`
Result: 5.15

Ask: Provide measured pIC50 value, entry: `CC(C)C[C@H](NC(=O)CC(c1ccccc1)c1ccccc1)C(=O)N[C@@H](CC(F)F)C(=O)C(=O)O`
Result: < 3.70

Ask: Provide measured pIC50 value, entry: CC(C)C[C@H](NC(=O)C(Cc1ccccc1)c1ccccc1)C(=O)N[C@@H](CC(F)F)C(=O)C(=O)O (stereo partly drawn)
Result: < 4.52

Ask: Provide measured pIC50 value, entry: `COc1ccc(C(=O)N[C@@H](CC(C)C)C(=O)N[C@@H](CC(F)F)C(=O)C(=O)O)c(OC)c1OC`
Result: < 3.70
